Test system: Rattus norvegicus
Experiment: In vivo antagonist activity was measured as forepaw treading(FT) in a behavioral response test in reserpinized rats at 3 mg/kg(sc) dose.
Format: functional
test readout: Behavior score
I only need the number, thanks.

Example cases with answers are listed next.
COc1ccc(CCCCNCCOc2cc(F)cc3c2OCC=C3)cc1 ... 0
COc1ccc(CCCCNCCOc2cc(F)cc3c2OCCC3=O)cc1 ... 1.3
O=C1CCOc2c(OCCNCCCCc3ccc4c(c3)OCO4)cc(F)cc21 ... 1.5
COc1ccc(CCCCNCCOc2cc(F)cc3c2OCCC3O)cc1 (stereo in doubt; 34) ... 1.8
COc1ccc(CCCCNCCOc2cc(F)cc3c2OCCC3)cc1 ... 0.5
O=C1CCOc2c(OCCNCCCCc3ccc4c(c3)OCCO4)cc(F)cc21 ... 5.8

Now for a further compound.
// query Query: Behavior score; subject: O=C1CCOc2c(OCCNCCCCc3ccc4c(c3)CCO4)cc(F)cc21
// result 1.2
